procedure-details: In vivo study - plasma AZT level by percutaneous (oleic acid pretreated skin) and oral administration of AZT
Design: species or system rat (Wistar strain, male)
assay-context: plasma; oral, 0.6 mg AZT in 0.5 ml water, rat; 6 h
assay-endpoint: concentration at 6 h

stdin: Return reported concentration at 6 h; argument: Cc1cn([C@H]2C[C@H](N=[N+]=[N-])[C@@H](CO)O2)c(=O)[nH]c1=O [AZT, 3'-azide-3'-deoxythymidine]
stdout: < 100 nM

###

procedure-details: In vivo study - plasma AZT level by percutaneous (oleic acid pretreated skin) and oral administration of AZT
Set-up: species or system rat (Wistar strain, male)
assay-context: plasma; oral, 0.6 mg AZT in 0.5 ml water, rat; 8 h
assay-endpoint: concentration at 8 h

stdin: concentration at 8 h for Cc1cn([C@H]2C[C@H](N=[N+]=[N-])[C@@H](CO)O2)c(=O)[nH]c1=O [AZT, 3'-azide-3'-deoxythymidine] ?
stdout: < 100 nM

###

procedure-details: In vivo study - plasma AZT level by percutaneous (oleic acid pretreated skin) and oral administration of AZT
Set-up: species or system rat (Wistar strain, male)
assay-context: plasma; oral, 0.6 mg AZT in 0.5 ml water, rat; 1 h
Method: Three male rates of Wistar strain weighing about 200 g was allotted to each group. The abdominal portion of the rat was shaven and pretreated with 10% oleic acid for 24 hours. Then a 1 ml aliquot of a solution containing 0.5% (18.7 mM) AZT and 10% oleic acid in water was applied over 4.9 cm^2 area of the skin by a glass cell secured on the body of the rat. AZT level in the plasma sampled at […], 2, 4, 6, 8 and 24 hours after the administration was determined by HPLC. […]
assay-endpoint: concentration at 1 h (nM)
The reply should be a number in nM, with the unit left off.

stdin: Any idea what its concentration at 1 h is? The compound is Cc1cn([C@H]2C[C@H](N=[N+]=[N-])[C@@H](CO)O2)c(=O)[nH]c1=O [AZT, 3'-azide-3'-deoxythymidine]
stdout: 2500

###

procedure-details: In vivo study - plasma AZT level by percutaneous (oleic acid pretreated skin) and oral administration of AZT
Set-up: species or system rat (Wistar strain, male)
assay-context: plasma; oral, 0.6 mg AZT in 0.5 ml water, rat; 2 h
assay-endpoint: concentration at 2 h (nM)
State just the number; it will be interpreted in nM.

stdin: I'd like to know its concentration at 2 h. The molecule in question is Cc1cn([C@H]2C[C@H](N=[N+]=[N-])[C@@H](CO)O2)c(=O)[nH]c1=O [AZT, 3'-azide-3'-deoxythymidine]
stdout: 500

###

procedure-details: In vivo study - plasma AZT level by percutaneous (oleic acid pretreated skin) and oral administration of AZT
Design: species or system rat (Wistar strain, male)
assay-context: plasma; oral, 0.6 mg AZT in 0.5 ml water, rat; 24 h
assay-endpoint: concentration at 24 h

stdin: Fill in the blank: the reported concentration at 24 h of Cc1cn([C@H]2C[C@H](N=[N+]=[N-])[C@@H](CO)O2)c(=O)[nH]c1=O [AZT, 3'-azide-3'-deoxythymidine] is ____.
stdout: < 100 nM

###

procedure-details: In vivo study - plasma AZT level by percutaneous (oleic acid pretreated skin) and oral administration of AZT
Set-up: species or system rat (Wistar strain, male)
assay-context: plasma; oral, 0.6 mg AZT in 0.5 ml water, rat; 4 h
assay-endpoint: concentration at 4 h

stdin: Given the compound Cc1cn([C@H]2C[C@H](N=[N+]=[N-])[C@@H](CO)O2)c(=O)[nH]c1=O [AZT, 3'-azide-3'-deoxythymidine] , what is its reported concentration at 4 h?
stdout: 0.2 µM

Attribution: patent US5248674A
